# Target Or Test System: Heat shock factor protein 1 (Mus musculus)
# Sequence (P38532 whole entry): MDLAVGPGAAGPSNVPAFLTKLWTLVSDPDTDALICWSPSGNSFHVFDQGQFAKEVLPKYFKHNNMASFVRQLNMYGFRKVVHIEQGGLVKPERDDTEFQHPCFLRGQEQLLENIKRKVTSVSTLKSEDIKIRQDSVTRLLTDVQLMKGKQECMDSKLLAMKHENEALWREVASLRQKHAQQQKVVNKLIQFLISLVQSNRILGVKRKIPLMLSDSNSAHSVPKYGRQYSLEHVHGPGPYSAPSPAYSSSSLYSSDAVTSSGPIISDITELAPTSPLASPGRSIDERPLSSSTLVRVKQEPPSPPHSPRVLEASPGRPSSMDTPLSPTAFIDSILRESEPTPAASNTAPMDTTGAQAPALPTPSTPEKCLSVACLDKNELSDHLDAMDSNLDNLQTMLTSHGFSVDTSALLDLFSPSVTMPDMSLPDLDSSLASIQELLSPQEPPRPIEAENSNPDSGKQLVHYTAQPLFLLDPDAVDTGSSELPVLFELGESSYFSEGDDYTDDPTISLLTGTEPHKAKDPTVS
# Protocol Notes: inhibition of MG132-induced HSE-luciferase signal, confirmation, cell-based, NIH3T3, luminescence, dose retest (AID 2382);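 note: NIH3T3 fibroblasts with HSF1-driven luciferase reporter stressed by proteasome inhibitor MG132; luminescence from HSF1-driven luciferase expression after 8 hours of MG132 stress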
# Type: functional
Active and inactive are the calls of the source. Cut-off read from the data, not from the text of the source: actives have a measured EC50 and inactives only a lower limit.
Entries and their EC50

Recorded EC50, per entry:
Item COc1cc2c(cc1NC(=O)C(C)Sc1ccc(NC(C)=O)cc1)oc1ccccc12 (stereo unspecified) was tested on Heat shock factor protein 1 (Mus musculus); the reported EC50 is > 195 µM (not active)

// compound COc1ccc(CCNCc2ccsc2)cc1OC , assay Heat shock factor protein 1 (Mus musculus), EC50 value: > 195 µM (not active)

Further cases:
Form field EC50 for item Cc1onc(-c2ccccc2Cl)c1C(=O)Nc1ccc(OCC(=O)N2CCOCC2)cc1 on Heat shock factor protein 1 (Mus musculus): > 195 µM (not active)

Here COc1ccc(CCNCC(O)Cn2ccc3ccccc32)cc1OC (stereo unspecified) was tested on Heat shock factor protein 1 (Mus musculus), and its EC50 came to > 100 µM (not active)

So the reported EC50 for CC(=O)C[C@H]1c2cc(F)ccc2S(=O)(=O)N1c1ccc(N(C)C)cc1 , on Heat shock factor protein 1 (Mus musculus), turned out to be 33.8 µM (active)

For the compound CN1CCN(S(=O)(=O)c2ccc(Oc3ccc(F)c(Cl)c3)nc2)CC1 , the measured EC50 on Heat shock factor protein 1 (Mus musculus) was > 195 µM (not active)
